Value source: patent US20250163038A1

- SYSTEM NAME: Recombinant human c-Cbl (aa 47-435) (Homo sapiens)
- Sequence (P22681 47-435): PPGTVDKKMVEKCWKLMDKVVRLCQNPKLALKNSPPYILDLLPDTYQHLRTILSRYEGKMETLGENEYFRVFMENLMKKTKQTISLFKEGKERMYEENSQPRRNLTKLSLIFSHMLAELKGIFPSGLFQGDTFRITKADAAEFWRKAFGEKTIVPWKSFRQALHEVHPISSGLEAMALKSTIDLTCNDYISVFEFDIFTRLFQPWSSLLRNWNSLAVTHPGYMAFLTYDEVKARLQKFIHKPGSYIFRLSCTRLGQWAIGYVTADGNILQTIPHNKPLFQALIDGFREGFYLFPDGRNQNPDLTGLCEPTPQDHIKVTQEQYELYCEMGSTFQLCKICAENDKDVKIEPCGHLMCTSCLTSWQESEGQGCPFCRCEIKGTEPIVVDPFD
- PROCEDURE SUMMARY: c-Cbl Biochemical Assay (TR-FRET)
- CONDITION SET: hc-Cbl Biochemical Assay (TR-FRET); read-out: TR-FRET hcCbl IC50
pIC50: −log10 of the molar value.
As shown below, each of these compounds has a reported pIC50 value.

Field: example entries. Status: answers known.
>>> test_value("Cn1cnnc1-c1cc(F)ccc1-c1cccc(-c2nc3cc(CNCC4(O)CCCC4)cc(C(F)(F)F)c3o2)c1")
"5.00 to 6.00"
>>> test_value("CN1CCC[C@H](NCc2cc(C(F)(F)F)c3[nH]c(-c4cccc(-c5ccc(F)cc5-c5nncn5C)c4)nc3c2)C1=O")
"5.00 to 6.00"
>>> test_value("C[C@@H]1CCC[C@@H](NCc2cc(C(F)(F)F)c3oc(-c4cccc(-c5ccc(F)cc5-c5nncn5C)c4)nc3c2)C1 (racemic)")
"> 6.70"
>>> test_value("COCCCNCc1cc(C(F)(F)F)c2oc(-c3cccc(-c4ccc(F)cc4-c4nncn4C)c3)nc2c1")
"> 6.70"
>>> test_value("CCC1(CNCc2cc(C(F)(F)F)c3oc(-c4cccc(-c5ccc(F)cc5-c5nncn5C)c4)nc3c2)CCC1")
"> 6.70"

# input compound: Cn1cnnc1-c1ccccc1-c1cccc(-c2nc3cc(CN4CCC5(CC5)C4)cc(C(F)(F)F)c3[nH]2)c1 ; wanted: its pIC50
4.30 to 5.00

# input compound: C[C@H]1CCCN(Cc2ccc3oc(-c4cc(-c5ccc(C#N)cc5-c5nncn5C)cc(C5CC5)n4)nc3c2)C1 ; wanted: its pIC50
6.00 to 6.70
